Recorded values, source patent US20100216823A1.

Listing: 1C/7A selectivity of selected compounds
target: PDE7A (Homo sapiens, UniProt Q13946); construct: cell lysate containing full length PDE7A, PDE7B and PDE1C enzyme; made in house; host or cells: cell lysate; assay: PDE7A [3H]-cAMP scintillation proximity assay (SPA) enzyme inhibition; type: biochemical; conditions: ratio PDE1C Ki / PDE7A Ki
Sequence (Q13946 whole entry): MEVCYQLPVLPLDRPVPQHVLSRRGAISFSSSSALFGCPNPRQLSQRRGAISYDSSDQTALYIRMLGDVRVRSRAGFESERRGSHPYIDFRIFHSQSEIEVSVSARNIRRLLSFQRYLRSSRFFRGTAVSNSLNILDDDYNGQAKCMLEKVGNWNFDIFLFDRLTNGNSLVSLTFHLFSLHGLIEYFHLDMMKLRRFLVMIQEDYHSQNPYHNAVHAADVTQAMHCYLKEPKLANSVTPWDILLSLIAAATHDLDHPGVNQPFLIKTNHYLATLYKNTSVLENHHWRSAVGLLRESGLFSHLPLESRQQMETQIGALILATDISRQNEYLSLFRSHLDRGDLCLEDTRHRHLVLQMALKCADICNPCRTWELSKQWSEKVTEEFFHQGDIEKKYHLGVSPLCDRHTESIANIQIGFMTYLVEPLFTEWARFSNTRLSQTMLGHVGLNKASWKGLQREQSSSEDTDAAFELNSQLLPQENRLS

- Compound: "O=C(O)COc1cccc(-c2ccc(Cl)c3c2C2(CCCCC2)NC(=O)N3)c1 [Example 5]"
  1C/7A selectivity: ">1260"
- Compound: "O=C1Nc2c(Cl)ccc(Oc3ccc(F)cc3-c3nnn[nH]3)c2C2(CCCC2)N1 [Example 13]"
  1C/7A selectivity: 523
- Compound: "O=C1Nc2c(Cl)ccc(OCc3ccc(C(=O)O)o3)c2C2(CCCCC2)N1 [Compound C, reference compound]"
  1C/7A selectivity: 45
- Compound: "O=C1Nc2c(Cl)ccc(Oc3ccc(F)cc3-c3nn[nH]n3)c2C2(CCCCC2)N1 [Example 11]"
  1C/7A selectivity: ">307"
- Compound: "O=C1Nc2c(Cl)ccc(Oc3c(Cl)cccc3-c3nn[nH]n3)c2C2(CCCC2)N1 [Example 15]"
  1C/7A selectivity: 217
- Compound: "O=C(O)COc1ccccc1Oc1ccc(Cl)c2c1C1(CCCCC1)NC(=O)N2 [Example 23]"
  1C/7A selectivity: 121
- Compound: "O=C1Nc2c(F)ccc(Oc3c(Cl)cccc3C(=O)O)c2C2(CCCCC2)N1 [Example 9]"
  1C/7A selectivity: ">116"
- Compound: "O=C1Nc2c(Cl)ccc(Oc3c(F)cccc3C(=O)O)c2C2(CCCC2)N1 [Example 7]"
  1C/7A selectivity: 201
- Compound: "O=C1Nc2c(Cl)ccc(Oc3c(F)cccc3NS(=O)(=O)C(F)(F)F)c2C2(CCCCC2)N1 [Example 21]"
  1C/7A selectivity: 311
- Compound: "O=C1Nc2c(Cl)cc(-c3ccc(C(=O)O)cc3)cc2C2(CCCCC2)N1 [Compound B, reference compound]"
  1C/7A selectivity: 0.97
- Compound: "O=C(O)Cc1cccc(F)c1Oc1ccc(Cl)c2c1C1(CCCCC1)NC(=O)N2 [Example 22]"
  1C/7A selectivity: ">282"
- Compound: "O=C1Nc2c(Cl)ccc(-c3cccc(C(=O)O)c3)c2C2(CCCCC2)N1 [Example 2]"
  1C/7A selectivity: ">1810"
- Compound: "O=C1Nc2c(Cl)ccc(Oc3c(F)cccc3-c3nn[nH]n3)c2C2(CCCC2)N1 [Example 14]"
  1C/7A selectivity: 301
- Compound: "O=C1Nc2c(Cl)ccc(Oc3ccccc3-c3nnn[nH]3)c2C2(CCCCC2)N1 [Example 17]"
  1C/7A selectivity: ">245"
- Compound: "O=C1Nc2c(Cl)ccc(Oc3c(Cl)cccc3C(=O)O)c2C2(CCCCC2)N1 [Example 8]"
  1C/7A selectivity: 380
- Compound: "O=C1Nc2c(Cl)ccc(Oc3c(F)cccc3-c3n[nH]c(=O)[nH]3)c2C2(CCCCC2)N1 [Example 19]"
  1C/7A selectivity: 183
- Compound: "O=C1Nc2c(Cl)ccc(-c3ccc(F)c(-c4nn[nH]n4)c3)c2C2(CCCCC2)N1 [Example 4]"
  1C/7A selectivity: 207
- Compound: "O=C(O)COc1ccc(Oc2ccc(Cl)c3c2C2(CCCCC2)NC(=O)N3)cc1 [Example 24]"
  1C/7A selectivity: 160
- Compound: "O=C1Nc2c(Cl)ccc(-c3ccc(C(=O)O)c(F)c3)c2C2(CCCCC2)N1 [Example 3]"
  1C/7A selectivity: 218
- Compound: "O=C1Nc2c(Cl)ccc(-c3ccc(F)c(C(=O)O)c3)c2C2(CCCCC2)N1 [Example 1]"
  1C/7A selectivity: ">1750"
- Compound: "O=C1Nc2c(Cl)ccc(Oc3ccccc3-c3nn[nH]n3)c2C2(CCCC2)N1 [Example 16]"
  1C/7A selectivity: 345
- Compound: "O=C1Nc2c(Cl)ccc(Oc3c(F)cccc3C(=O)O)c2C2(CCCCC2)N1 [Example 6]"
  1C/7A selectivity: 336
- Compound: "O=C1Nc2c(Cl)ccc(Oc3c(F)cccc3-c3nn[nH]n3)c2C2(CCCCC2)N1 [Example 10]"
  1C/7A selectivity: 743
- Compound: "O=C1Nc2c(F)ccc(Oc3c(F)cccc3-c3nn[nH]n3)c2C2(CCCCC2)N1 [Example 12]"
  1C/7A selectivity: 301
- Compound: "O=C1Nc2c(Cl)ccc(Oc3c(F)cccc3-c3noc(=O)[nH]3)c2C2(CCCCC2)N1 [Example 18]"
  1C/7A selectivity: 85
- Compound: "CS(=O)(=O)NC(=O)c1cccc(F)c1Oc1ccc(Cl)c2c1C1(CCCCC1)NC(=O)N2 [Example 20]"
  1C/7A selectivity: 290
